- Experimental System: Neu5Ac(a2-3)Gal(b1-4)GlcNAc(b1-3)GalNAc
- Test Summary: glycan array binding signal (z-score within array); higher = stronger binding
- Stated Conditions: glycan notation: IUPAC condensed, linker removed
The sample as a whole holds a higher share of the strongest signals than the screen did.
Measurement Label: glycan array binding signal (z-score)
Output spec: single numeric token, no unit.

[[record]]
binder = "CFEM-SCL (Saccharomyces cerevisiae), O13547 (protein) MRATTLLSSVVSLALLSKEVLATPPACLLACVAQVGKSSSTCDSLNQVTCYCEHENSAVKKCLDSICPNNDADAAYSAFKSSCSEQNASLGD"
recorded_number = -0.277

[[record]]
binder = "Sp8391B-bot-388-20-388 (Bacteroides ovatus) (protein) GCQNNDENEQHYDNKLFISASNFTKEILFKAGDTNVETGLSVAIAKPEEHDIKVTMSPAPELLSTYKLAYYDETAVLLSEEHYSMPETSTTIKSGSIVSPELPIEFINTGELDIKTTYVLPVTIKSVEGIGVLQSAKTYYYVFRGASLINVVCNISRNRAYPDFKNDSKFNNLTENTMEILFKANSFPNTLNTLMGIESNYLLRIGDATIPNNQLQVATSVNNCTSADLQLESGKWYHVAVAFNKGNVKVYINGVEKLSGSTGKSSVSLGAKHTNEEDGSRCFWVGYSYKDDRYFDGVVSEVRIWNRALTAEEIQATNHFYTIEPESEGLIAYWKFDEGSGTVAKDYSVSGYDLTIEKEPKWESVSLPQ"
recorded_number = -0.435


Would you kindly look at the next entry?
Measured glycan array binding signal (z-score), LlpB (Pseudomonas fluorescens) (protein) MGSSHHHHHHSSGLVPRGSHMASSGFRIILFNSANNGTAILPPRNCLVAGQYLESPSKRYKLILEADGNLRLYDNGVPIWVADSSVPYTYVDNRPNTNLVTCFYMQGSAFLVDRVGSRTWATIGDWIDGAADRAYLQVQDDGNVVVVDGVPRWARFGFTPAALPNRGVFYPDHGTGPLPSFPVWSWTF : -0.794
